- Test system: RXF 631
- method_summary: NCI tumour cell line growth inhibition, 48 h
Activity calls are given as the source filed them. No stated cut-off is given here; in the data, active = GI50 up to about 1.1 µM and inactive = higher.
quantity_name: GI50

Examples with their reported GI50 follow.
| compound | experimental_system | value_observed |
| --- | --- | --- |
| COC(=O)CCc1cccnc1/C=N/O | RXF 631 | > 100 µM (inactive) |
| COc1cc(C2C(C(=O)Nc3ccccc3C)=C(C)NC(C)=C2C(=O)Nc2ccccc2C)ccc1O | RXF 631 | > 100 µM (inactive) |
| CC(C)CC(N/C=C1/N=C(c2ccccc2)OC1=O)C(=O)O (stereo unspecified) | RXF 631 | > 100 µM (inactive) |
| COc1ccccc1NC(=O)C1=C(C)NC(C)=C(C(=O)Nc2ccccc2OC)C1c1ccccc1F | RXF 631 | > 100 µM (inactive) |
| CN(C)CCNC(=O)c1cccc2c1nc(-c1cccnc1)c1ccccc12 | RXF 631 | 1.96 µM (inactive) |

For the compound CCOC(=O)C1CCn2c(nc3c(=O)n(C)c(=O)n(C)c32)S1 (stereo unspecified) , report GI50.
> 100 µM (inactive)

Please give measured GI50 of the following entry: COc1ccc(Cc2cc(OC)c(OC)c(OC)c2)cc1O
25.2 µM (inactive)

Give a short answer stating reported GI50 for CC(=O)NC1C(OCc2ccccc2)OC(COC(=O)CCCCCCCCCCNC(=O)CCNc2ccc([N+](=O)[O-])c3[nH]c4ccc(O)cc4c(=O)c23)C(O)C1OC(C)C(=O)N[C@H](C(=O)N[C@H](CCC(=O)O)C(N)=O)C(C)C (stereo partly specified) .
90.6 µM (inactive)

Supply measured GI50 of COc1cc2c(cc1OC)C1c3ccccc3C(C#N)(C2)N(C(=O)c2ccccc2)C1O (stereo unspecified) in your reply.
> 100 µM (inactive)

Return GI50 (reported value) for this compound: COc1ccc(/C(Cl)=C(\C=O)c2ccc(OC)c(OC)c2)cc1
54.3 µM (inactive)

Kindly indicate its recorded GI50. Item: O=C1C2C(C(=O)N1c1ccccc1)C1([N+](=O)[O-])C=C3c4ccccc4N(C(=O)c4ccccc4)C32C2C(=O)N(c3ccccc3)C(=O)C21 (stereo unspecified)
> 100 µM (inactive)

Indicate the recorded GI50 value for this compound: CC1=C(CC2C(=O)N(c3ccccc3)S(=O)(=O)NC2C)C(=O)N(c2ccccc2)S(=O)(=O)N1C (stereo unspecified)
> 100 µM (inactive)

Find the measured GI50 of CC1(Cl)CC(C)(/C=C/Cl)C(Cl)CC1Cl (stereo unspecified) and report it.
12.8 µM (inactive)

Identify measured GI50 corresponding to COc1ccc(Br)c(CN2CCc3ccccc32)c1OS(=O)(=O)c1ccc(C)cc1
34.4 µM (inactive)

Identify the reported GI50 for the following entry. CC1NOC(=O)C1/N=N/c1ccccc1Br (stereo unspecified)
31.3 µM (inactive)

Write down GI50 measured for item N#CC1=C(Cl)NC(Cl)=C(C#N)C1c1ccc(Cl)cc1
13 µM (inactive)

====

- Tested on: NCI-H522
- method_summary: NCI tumour cell line growth inhibition, 48 h
The source made the active and inactive calls. Rule as the data show it: active = GI50 up to about 1.1 µM and inactive = higher.
Result category, one only: active, inactive

Sample answers from the record:
| compound | group |
| --- | --- |
| COc1ccc(Cc2cc(OC)c(OC)c(OC)c2)cc1O | active |
| COc1ccc2c(c1)CCC(CN1CCN(CCOC(c3ccc(F)cc3)c3ccc(F)cc3)CC1)C2O (stereo unspecified) | inactive |
| O=C1OC(=O)c2c1cc1cc3c(cc1c2-c1ccc2c(c1)OCO2)OCO3 | inactive |
| [N-]=[N+]=NC1C(O)C(CO)OC1n1ccc(=O)[nH]c1=O (stereo unspecified) | inactive |
| O=C(O)/C=C/c1c[nH]c(=O)[nH]c1=O | inactive |

Hey, what did the test say about CC1(Cl)CC(C)(/C=C/Cl)C(Cl)CC1Cl (stereo unspecified) ?
inactive

Check the results log: what was the call for CCN(CC)c1ccc2cc(-c3nnc(-c4ccccc4)o3)c(=O)oc2c1 ?
inactive

Short answer needed: outcome of this test for Nc1c(OCC(=O)O)ccc2cc(S(=O)(=O)O)ccc12 ?
inactive

// param item: COC(=O)C#CCC1CCCC1C1SCCS1 (stereo unspecified) ; yields the recorded call
inactive

Please share the test call associated with COc1c2c(cc3c1C(O)N1CC[C@]34[C@H]3O[C@H]3[C@H](OC)C[C@@H]14)OCO2 (stereo partly specified) .
inactive

Dear all, I need the recorded test outcome for CC1=C(CC2C(=O)N(c3ccccc3)S(=O)(=O)NC2C)C(=O)N(c2ccccc2)S(=O)(=O)N1C (stereo unspecified) , thank you.
inactive

====

- Tested on: U-251
- method_summary: NCI tumour cell line growth inhibition, 48 h
Calls of active or inactive are those of the source. No stated cut-off is given here; in the data, active = GI50 up to about 1.1 µM and inactive = higher.
Would you mind answering with one of these outcomes? yes for active, no for inactive

Identify the outcome logged in this assay for the compound shown: COC(=O)c1c[nH]c2nc(N3CCOCC3)nn2c1=O
no

What did this assay record as the result for IC[P+]1(c2ccccc2)CCCC1 ?
no

# fetch the recorded call for CC1(C)CCC2=C(O1)/C(=N\Nc1ccccc1)c1ccccc1C2=O here
no

Identify the outcome logged in this assay for the compound shown: O=C(CCC(=O)OCC1OC(O)(CC2OC(CO)C(O)C(O)C2O)C(O)C1O)OCc1ccccc1 (configuration not stated)
no

Which outcome did this test record for the compound O=C1c2ccccc2C(=O)c2c1sc1nc3ccccc3n21 ?
no

Field: outcome | Entry: [O-][S+](CCCl)c1c2ccccc2nc2ccccc12 (configuration not stated)
no

Kindly provide the recorded test outcome for the following compound: CCn1c2ccccc2c2cc(/N=N\c3ccc(C#N)cc3)ccc21
no

Please indicate how the test categorized CC(C)=CC(O)C(C(O)CCC1(C)OCCO1)S(=O)(=O)c1ccccc1 (configuration not stated) .
no

Just curious, what result did CNC(=O)C(C)C1CCC2(C)C=CC(=O)C(C)=C2C1O (configuration not stated) get here?
no

Recorded test outcome, item COc1cc(-c2nc3cc(F)ccc3s2)ccc1O
no

Hey, what did the test say about O=c1s[s+]([O-])c2ccccc12 (configuration not stated) ?
no

Lab log entry: Cc1c(NC(=O)Nc2c(Cl)cccc2Cl)c(=O)n(-c2ccccc2)n1C — outcome as called in the assay?
no

====

The reader will find reported GI50 values listed item by item below.
- Test system: MCF7
- method_summary: NCI tumour cell line growth inhibition, 48 h
Activity calls are given as the source filed them. No stated cut-off is given here; in the data, active = GI50 up to about 1.1 µM and inactive = higher.

Solved cases below.
| smiles_text | GI50 |
| --- | --- |
| COc1ccc(Oc2ccc3cc4c(cc3c2O)OCO4)c2cc(C)oc12 | 34 µM (inactive) |
| Cc1nc(N)nc2ccccc12 | > 100 µM (inactive) |
| O=c1c2ccccc2nc(Cc2nc(-c3ccc(Cl)cc3)cs2)n1-c1ccc(Cl)cc1 | 46.9 µM (inactive) |

Report GI50 under test system MCF7 for CNC(=O)OCc1nc(SC(C)C)n(C)c1COC(=O)NC .
> 100 µM (inactive)

State, for MCF7, measured GI50 of the compound listed here: COc1ccc(Nc2nc3ccccc3nc2C(=O)O)cc1
> 100 µM (inactive)

Provide the reported GI50 (system: MCF7) for C=C1C(=O)O[C@H]2[C@H]3O[C@@H](C[C@@H]12)[C@](C)(O)CCCC(C)=CCC[C@H]3C
7.26 µM (inactive)

====

- System: CCRF-CEM
- method_summary: NCI tumour cell line growth inhibition, 48 h
Activity calls are given as the source filed them. No stated cut-off is given here; in the data, active = GI50 up to about 1.1 µM and inactive = higher.
Items are presented alongside their recorded GI50.

| compound | GI50 |
| --- | --- |
| O=C1c2cccc3cccc(c23)C(=O)N1O | 18.5 µM (inactive) |
| CN/N=C(/CC(=O)c1sc(-n2nc(-c3ccccc3)cc2-c2ccccc2)nc1C)C(=O)Nc1ccc(Cl)c(Cl)c1 | 27.7 µM (inactive) |
| Cc1ccc(S(=O)(=O)N/N=C(/c2nc3ccc([N+](=O)[O-])cc3nc2O)C(O)c2ccc(C(O)/C(=N\NS(=O)(=O)c3ccc(C)cc3)c3nc4ccc([N+](=O)[O-])cc4nc3O)cc2)cc1 (stereo not given) | 13.6 µM (inactive) |
| Cc1ccc(S(=O)(=O)OCC(=O)O)cc1 | > 100 µM (inactive) |

Now for a further compound.
Give GI50 for O=C(NP(=O)(N1CC1)N1CC1)c1cc(I)ccc1I
4.86 µM (inactive)

====

- Tested on: UO-31
- method_summary: NCI tumour cell line growth inhibition, 48 h
The source made the active and inactive calls. Cut-off read from the data, not from the text of the source: active = GI50 up to about 1.1 µM and inactive = higher.
quantity_name: GI50

Some solved cases for reference:
| molecule | GI50 |
| --- | --- |
| CC(=O)c1c2c(cc3c1CC1(Cc4cc5c(cc4C1=O)CCC5)C3)CCC2 (centres undefined) | 36.9 µM (inactive) |
| CC(=O)NC1C(OCc2ccccc2)OC(COC(=O)CCCCCCCCCCNC(=O)CCNc2ccc([N+](=O)[O-])c3[nH]c4ccc(O)cc4c(=O)c23)C(O)C1OC(C)C(=O)N[C@H](C(=O)N[C@H](CCC(=O)O)C(N)=O)C(C)C (some centres undefined) | 55.2 µM (inactive) |
| Fc1ccc(C(OCCN2CCN(CCCc3ccccc3)CC2)c2ccc(F)cc2)cc1 | 2.73 µM (inactive) |

Here is the next item to consider.
GET GI50 | system: UO-31 | item: O=C(OCC(Cl)(Cl)Cl)O[C@@H]1CCCC1(c1ccccc1)c1ccccc1
> 100 µM (inactive)
